target desc: Na^+ Channel (site2)
procedure summary: Cerep panel: Na+ Channel (site2) radioligand binding
protocol conditions: Cerep 0169
property label: Ki (µM)

1) COc1cc(CCC(C)NCc2ccc(C(F)(F)F)cc2)ccc1O (stereo not shown); 2

---

target desc: mu opioid (Homo sapiens, UniProt P35372)
Sequence (P35372 whole entry): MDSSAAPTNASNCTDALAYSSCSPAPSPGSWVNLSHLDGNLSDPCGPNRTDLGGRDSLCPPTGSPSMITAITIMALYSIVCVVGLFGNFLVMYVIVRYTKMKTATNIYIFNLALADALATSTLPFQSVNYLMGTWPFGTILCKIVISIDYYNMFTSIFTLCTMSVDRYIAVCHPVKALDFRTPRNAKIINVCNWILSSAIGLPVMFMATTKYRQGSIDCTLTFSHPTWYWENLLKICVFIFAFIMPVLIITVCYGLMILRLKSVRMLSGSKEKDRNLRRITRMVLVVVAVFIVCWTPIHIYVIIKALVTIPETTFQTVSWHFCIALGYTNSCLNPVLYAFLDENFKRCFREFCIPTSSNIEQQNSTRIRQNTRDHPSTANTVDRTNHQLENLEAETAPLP
pKi: −log10 of the molar value.
property label: pKi

1. COc1cc(CCC(C)NCc2ccc(C(F)(F)F)cc2)ccc1O (stereo not shown); 5.77

---

target desc: sigma-2/PGRMC1 receptor (Homo sapiens, UniProt Q5BJF2)
Sequence (Q5BJF2 whole entry): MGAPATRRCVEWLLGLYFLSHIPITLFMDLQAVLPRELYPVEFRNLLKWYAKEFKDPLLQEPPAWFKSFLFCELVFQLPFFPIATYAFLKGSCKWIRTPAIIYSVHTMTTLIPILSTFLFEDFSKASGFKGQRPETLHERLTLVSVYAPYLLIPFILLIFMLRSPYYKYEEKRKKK
procedure summary: Sigma-2 radioligand binding ([3H]DTG competition, Jurkat cell membranes; Cerep 0148)
protocol conditions: homogenates of a human T cell line; mean ± S.E.M.; read-out: Ki, displacement of selective radioligand [3H]-DTG from sigma-2/PGRMC1 receptor
property label: Ki (nM)

1) COc1cc(CCC(C)NCc2ccc(C(F)(F)F)cc2)ccc1O (stereo not shown) [CT0109]; 9

---

target desc: sigma-2/PGRMC1 receptors in human brain (Homo sapiens)
Construct: serial sections of unfixed frozen cognitively normal elderly human frontal cortex
Sequence (Q5BJF2 whole entry): as the sequence (Q5BJF2 whole entry) above
procedure summary: Quantitative autoradiography, radioligand displacement from human frontal cortex sections
protocol conditions: serial sections of unfixed frozen cognitively normal elderly human frontal cortex; 10-10,000 nM compound; N = 4; read-out: Ki at the [125I]RHM-1 binding site, human frontal cortex
pKi: −log10 of the molar value.
property label: pKi

1) COc1cc(CCC(C)NCc2ccc(C(F)(F)F)cc2)ccc1O (stereo not shown); 7.24
